# tested_on: full-length RORγt in Jurkat cells (Homo sapiens (Human))
# run_description: RORγt 5×RORE Assay in Jurkat Cells (Assay 2)
# condition_label: 5×RORE Nanoluc luciferase reporter
pIC50: −log10 of the molar value.

compound | pIC50
CCS(=O)(=O)c1ccc([C@H](CO)NC(=O)c2ccc3c(c2)nc(C2(F)CCC2)n3Cc2cccc3c2OC(F)(F)O3)cc1 [I-19] | > 7.00
CCc1nc2cc(C(=O)NCc3ccc(S(=O)(=O)CC)cc3)ccc2n1[C@@H](C)c1cccc2c1OC(F)(F)O2 [I-125.1] | < 6.00
CCS(=O)(=O)c1ccc([C@H](CO)NC(=O)c2ccc3c(c2)nc(C2(F)CC2)n3Cc2cccc3c2OC(F)(F)O3)cc1 [I-18] | > 7.00
CCS(=O)(=O)c1ccc(CNC(=O)c2ccc3c(c2)nc([C@@H]2CCCO2)n3Cc2cccc3c2OC(F)(F)O3)cc1 [I-39.2] | > 7.00

----------
# tested_on: full-length RORγt in Jurkat cells (Homo sapiens (Human), UniProt P51449)
# Sequence (P51449 other isoform, or with tags, fused parts or gaps): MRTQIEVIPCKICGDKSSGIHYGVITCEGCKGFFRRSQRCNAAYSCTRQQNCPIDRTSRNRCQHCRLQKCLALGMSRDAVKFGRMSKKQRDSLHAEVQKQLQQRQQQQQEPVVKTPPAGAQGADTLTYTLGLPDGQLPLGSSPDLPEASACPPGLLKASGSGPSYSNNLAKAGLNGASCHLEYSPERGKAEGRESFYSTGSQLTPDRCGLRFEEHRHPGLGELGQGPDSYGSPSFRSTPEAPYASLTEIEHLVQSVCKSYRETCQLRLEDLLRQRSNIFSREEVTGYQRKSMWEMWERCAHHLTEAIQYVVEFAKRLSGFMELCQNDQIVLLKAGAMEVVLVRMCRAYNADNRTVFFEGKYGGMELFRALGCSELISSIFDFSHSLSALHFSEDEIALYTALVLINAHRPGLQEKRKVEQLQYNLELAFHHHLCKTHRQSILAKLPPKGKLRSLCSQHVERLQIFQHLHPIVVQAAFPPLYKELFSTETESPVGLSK
# run_description: RORγt 5×RORE Assay in Jurkat Cells (Assay 2)
# condition_label: 5×RORE Nanoluc luciferase reporter
property_label: IC50

structure_smiles_string | tested_on | value
CCS(=O)(=O)c1ccc(CNC(=O)c2ccc3c(c2)nc(C(F)(F)F)n3Cc2cc(C#N)ccc2F)cc1 | full-length RORγt in Jurkat cells (Homo sapiens (Human), UniProt P51449) | 100 to 1000 nM
CCS(=O)(=O)c1ccc(CNC(=O)c2ccc3c(c2)nc(C2CC2)n3Cc2cccc(OC(F)(F)F)c2)cc1 | full-length RORγt in Jurkat cells (Homo sapiens (Human), UniProt P51449) | < 100 nM
O=C(Cc1ccc(S(=O)(=O)CCO)cc1)Nc1ccc2c(c1)nc(C(F)(F)F)n2Cc1cccc2c1OC(F)(F)O2 | full-length RORγt in Jurkat cells (Homo sapiens (Human), UniProt P51449) | < 100 nM
CS(=O)(=O)c1ccc([C@H](CO)NC(=O)c2ccc3c(c2)nc(C2CC2)n3Cc2cccc3c2OC(F)(F)O3)cc1 | full-length RORγt in Jurkat cells (Homo sapiens (Human), UniProt P51449) | < 100 nM
CCS(=O)(=O)c1ccc(CNC(=O)c2ccc3c(c2)nc(C(F)(F)F)n3Cc2cncc3[nH]ccc23)cc1 | full-length RORγt in Jurkat cells (Homo sapiens (Human), UniProt P51449) | 100 to 1000 nM
CCS(=O)(=O)c1ccc(CNC(=O)c2ccc3c(c2)nc(OC)n3Cc2cccc3c2OC(F)(F)O3)cc1 | full-length RORγt in Jurkat cells (Homo sapiens (Human), UniProt P51449) | 100 to 1000 nM
CCS(=O)(=O)c1ccc(CNC(=O)c2ccc3c(c2)nc(C2(F)CCC2)n3Cc2cccc3c2OC(F)(F)O3)nc1 | full-length RORγt in Jurkat cells (Homo sapiens (Human), UniProt P51449) | < 100 nM

----------
# Lookup of reported IC50 keyed by entry
# tested_on: full-length RORγt in Jurkat cells (Homo sapiens (Human), UniProt P51449)
# run_description: RORγt 5×RORE Assay in Jurkat Cells (Assay 2)
# condition_label: 5×RORE Nanoluc luciferase reporter
property_label: IC50

compound | value
CCS(=O)(=O)c1ccc(CNC(=O)c2ccc3c(c2)nc(C(F)(F)F)n3Cc2cccc(OC)c2)cc1 [I-88] | < 100 nM
CCS(=O)(=O)c1ccc(CNC(=O)c2ccc3c(c2)nc(C2CC2)n3Cc2ccccc2OC(F)(F)F)cc1 [I-106] | 100 to 1000 nM
COc1cc(Cn2c(C(F)(F)F)nc3cc(C(=O)NCc4ccc(S(=O)(=O)CCO)cc4)ccc32)cc(OC)c1 [I-124] | > 1000 nM
CCS(=O)(=O)c1ccc([C@H](CO)NC(=O)c2ccc3c(c2)nc(C2(F)CC2)n3Cc2cccc3c2OC(F)(F)O3)nc1 [I-134.1] | < 100 nM
NC(=O)CS(=O)(=O)N1CCC(CNC(=O)c2ccc3c(c2)nc(C(F)(F)F)n3Cc2cccc3c2OC(F)(F)O3)CC1 [I-78] | < 100 nM
CCS(=O)(=O)c1ccc(CNC(=O)c2ccc3c(c2)nc(C(F)(F)F)n3Cc2ccc(C#N)cc2)cc1 [I-85] | > 1000 nM
CNC(=O)CS(=O)(=O)c1ccc(CNC(=O)c2ccc3c(c2)nc(C(F)(F)F)n3Cc2cccc3c2OC(F)(F)O3)cc1 [I-169] | < 100 nM
COC(=O)CS(=O)(=O)c1ccc(CNC(=O)c2ccc3c(c2)nc(C(F)(F)F)n3Cc2cccc3c2OC(F)(F)O3)cc1 [I-53] | 100 to 1000 nM
CCS(=O)(=O)c1ccc(CNC(=O)c2ccc3c(c2)nc(C2(F)CC2)n3Cc2cccc3c2OC(F)(F)O3)cc1 [I-27] | < 100 nM
CCS(=O)(=O)c1ccc([C@H](CO)NC(=O)c2ccc3c(c2)nc(C(F)(F)F)n3Cc2cccc3c2OCO3)cc1 [I-81] | < 100 nM
O=C(NCc1ccc(S(=O)(=O)CCO)cc1)c1ccc2c(c1)nc(C1CC1)n2Cc1cccc2c1OC(F)(F)O2 [I-47] | < 100 nM
CNS(=O)(=O)N1CCC(CNC(=O)c2ccc3c(c2)nc(C(F)(F)F)n3Cc2cccc3c2OC(F)(F)O3)CC1 [I-77] | < 100 nM
CCS(=O)(=O)c1ccc([C@H](CO)NC(=O)c2ccc3c(c2)nc(C2CC2)n3Cc2cccc3c2OC(F)(F)O3)cc1 [I-12] | < 100 nM
CCS(=O)(=O)c1ccc([C@@H](CO)NC(=O)c2ccc3c(c2)nc(C(F)(F)F)n3Cc2cccc3c2OC(F)(F)O3)cc1 [I-11.2] | < 100 nM
CCS(=O)(=O)c1ccc([C@H](COC)NC(=O)c2ccc3c(c2)nc(C2CC2)n3Cc2cccc3c2OC(F)(F)O3)cc1 [I-60] | < 100 nM
CNS(=O)(=O)c1ccc(CNC(=O)c2ccc3c(c2)nc(C2CC2)n3Cc2cccc3c2OC(F)(F)O3)cc1 [I-35] | < 100 nM
COC(=O)C(NC(=O)c1ccc2c(c1)nc(C(F)(F)F)n2Cc1cccc2c1OC(F)(F)O2)C1CCN(S(C)(=O)=O)CC1 (centres unmarked) [I-76] | < 100 nM
CS(=O)(=O)c1ccc(CNC(=O)c2ccc3c(c2)nc(C(F)(F)F)n3Cc2cccc3c2OC(F)(F)O3)cc1 [I-48] | < 100 nM
CCS(=O)(=O)c1ccc(CNC(=O)c2ccc3c(c2)nc(C(F)(F)F)n3Cc2nc(C)cc(C(F)(F)F)n2)cc1 [I-138] | 100 to 1000 nM
CCS(=O)(=O)c1ccc([C@H](CO)NC(=O)c2ccc3c(c2)nc(C2CC2)n3Cc2cccc3c2OC(C)(C)C3)cc1 [I-101] | > 1000 nM
CCCS(=O)(=O)c1ccc(CNC(=O)c2ccc3c(c2)nc(C(F)(F)F)n3Cc2cccc3c2OC(F)(F)O3)cc1 [I-52] | < 100 nM
CCS(=O)(=O)c1ccc([C@H](CO)NC(=O)c2ccc3c(c2)nc(C(F)(F)F)n3Cc2cccc3c2OCC3)cc1 [I-80] | 100 to 1000 nM
CCS(=O)(=O)c1ccc(CNC(=O)c2ccc3c(c2)nc(C(F)(F)F)n3Cc2cccc3nonc23)cc1 [I-151] | < 100 nM
CNS(=O)(=O)c1ccc(CNC(=O)c2ccc3c(c2)nc(C(F)(F)F)n3Cc2cccc3c2OC(F)(F)O3)cc1 [I-46] | < 100 nM
CCS(=O)(=O)c1ccc([C@H](CO)NC(=O)c2ccc3c(c2)nc(C2CC2)n3Cc2cccc3c2OC(F)(F)O3)nc1 [I-133.1] | < 100 nM
CCS(=O)(=O)c1ccc(CNC(=O)c2ccc3c(c2)nc(C2CC2)n3Cc2ccc(OC(F)(F)F)cc2)cc1 [I-104] | > 1000 nM
CCS(=O)(=O)c1ccc(CNC(=O)c2ccc3c(c2)nc(N(C)C)n3Cc2cccc3c2OC(F)(F)O3)cc1 [I-162] | < 100 nM
CCS(=O)(=O)c1ccc(CNC(=O)c2ccc3c(c2)nc(C(F)(F)F)n3Cc2cc(OC)cc(OC)c2)nc1 [I-128] | > 1000 nM
CS(=O)(=O)c1ccc([C@H](CO)NC(=O)c2ccc3c(c2)nc(C2CCC2)n3Cc2cccc3c2OC(F)(F)O3)cc1 [I-22] | < 100 nM
